# Test system: ACHN renal
# EXPERIMENT: NCI tumour cell line growth inhibition, 48 h
Measured TGI of individual entries

- COC/C=C\COC: > 100 µM

Kindly review the next compound as well.
// lookup TGI | system=ACHN renal | key= "N#CN/C(N)=N/C/N=C(\N)NC#N"
> 100 µM

###

# Test system: SK-MEL-28 melanoma
# EXPERIMENT: NCI tumour cell line growth inhibition, 48 h
VALUE_KIND: TGI (µM)
Please state the figure in µM; there is no need to write the unit.

Use the examples below as a reference point.
* CC(C)(C)OC(=O)NC1CC2(C=C(Br)C(=O)C(Br)=C2)OC1=O (stereo unspecified) | 37.9
* C/C=C(/I)CBr | 52.6
* Cc1nc(N)nc2c1CCC(O)S2 (stereo unspecified) | 28.9
* COc1ccccc1C#Cc1ccccc1C#CCCCCO | 33.4

Kindly review the next compound as well.
What TGI value was documented for this compound, "CCOc1ccc2[nH]c3c(C)c4ccncc4c(C)c3c2c1" ?
3.61
